# ASSAY_SYSTEM: BIR3 domain of human XIAP (Homo sapiens, UniProt P98170)
# Construct: BIR3 domain of human XIAP (residues 252-350) fused to a His-tag; His-tag (cleaved yes); made in house; host or cells: Escherichia coli
# Sequence (P98170 252-350): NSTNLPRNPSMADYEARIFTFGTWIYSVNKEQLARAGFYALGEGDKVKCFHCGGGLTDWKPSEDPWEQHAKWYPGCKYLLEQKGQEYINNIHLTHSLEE
# TEST: XIAP in vitro competitive displacement binding assay (fluorescence polarization)
# SETTINGS: plain number = IC50; average where more than one data point; read-out: Xiap IC50 or PI μM (IC50)
Where a name gives a salt, the structure may show the parent alone.
EXPERIMENTAL_READOUT: IC50 (µM)

{"COMPOUND": "C[C@@H]1CN(CC(=O)N2CC(C)(C)c3ncc(Cc4ccc(F)cc4)cc32)[C@@H](CN2CCC[C@@H]2C(F)(F)F)CN1", "TEST_RESULT": 0.48}
{"COMPOUND": "C[C@@H]1CN(CC(=O)N2CC(C)(C)c3nnc(Cc4ccc(F)cc4)cc32)[C@@H](CN2[C@H](C)COC[C@H]2C)CN1 [Example 87, dihydrochloride]", "TEST_RESULT": 0.14}
{"COMPOUND": "C[C@@H]1CN(CC(=O)N2CC(C)(C)c3ncc(Cc4ccc(F)cc4)cc32)[C@@H](CN2C[C@@H]3C[C@H]2CO3)CN1 [Example 7, dihydrochloride]", "TEST_RESULT": 0.16}
{"COMPOUND": "C[C@@H]1CN(CC(=O)N2CC(C)(C)c3ncc(Cc4ccc(F)cc4)cc32)[C@@H](CN2CCOCC2C(F)(F)F)CN1 (single isomer, unassigned) [Example 27, hydrochloride]", "TEST_RESULT": 0.13}
{"COMPOUND": "C[C@@H]1CN(CC(=O)N2CC(C)(C)c3ncc(Cc4ccc(F)cc4)cc32)[C@@H](CN2CCCCC2C(F)(F)F)CN1 (single isomer, unassigned) [Example 24, hydrochloride]", "TEST_RESULT": 0.13}
